pIC50 reference
molecular target: human ACC1 (acetyl-coenzyme A carboxylase alpha transcript variant 1) (Homo sapiens); construct: FLAG (C); made in house; host or cells: baculovirus-infected insect cells (Hi5); test: Human ACC1 enzyme assay, Assay B1 (ADP-Glo); assay type: biochemical
pIC50 field: float, defined as -log10 of concentration (mol/L).

COC[C@H]1CC[C@]2(CC1)NC(=O)C(c1cc(-c3ccc(F)c(F)c3)ccc1C)=C2O
6.70

Suppose we examine the compound CC[C@]1(OC)CC[C@@]2(CC1)NC(=O)C(c1c(C)ccc(-c3ccc(F)cc3)c1C)=C2O ; what pIC50 value has been reported?
5.68

Quick one: pIC50 for Cc1ccc(-c2ccc(Cl)cc2)c(C)c1C1C(=O)N2CCOCCN2C1=O ?
5.88

What pIC50 value was documented for this compound, CO[C@H]1CC[C@]2(CC1)NC(=O)C(c1cc(-c3ccc(F)c(F)c3)cc(F)c1C)=C2O ?
6.42

Quick one: pIC50 for CO[C@H]1CC[C@]2(CC1)NC(=O)C(c1cc(-c3ccc(Cl)cc3)ccc1Cl)=C2O ?
6.84

----------
target: human ACC1 (acetyl-coenzyme A carboxylase alpha transcript variant 1) (Homo sapiens, UniProt Q13085); construct: FLAG (C); made in house; host or cells: baculovirus-infected insect cells (Hi5); assay: Human ACC1 enzyme assay, Assay B1 (ADP-Glo); format: biochemical
REPORTED ENDPOINT: log10 IC50 (log10 of the value in nM)
log10 IC50, nM

O=C1NC2(CCC3(CC2)OCCCO3)C(O)=C1c1cc(-c2ccc(Cl)cc2)ccc1Cl
2.64
COC1CCC2(CC1)OC(=O)C(c1cc(-c3ccc(Cl)cc3)c(C)cc1C)=C2O (centres unmarked)
2.34
Cc1ccc(-c2ccc(Cl)cc2)c(C)c1C1=C(O)C2(CCCOC2)NC1=O (centres unmarked)
2.70
Cc1ccc(-c2ccc(F)cc2)c(C)c1C1C(=O)N2CCOCCN2C1=O
3.79
Cc1ccc(-c2cccc(Cl)c2)cc1C1=C(O)C2(CCCCCC2)OC1=O
3.11
Cc1cc(C)c(-c2ccc(Cl)cc2)cc1C1=C(O)C(C)OC1=O (centres unmarked)
3.26
Cc1ccc(-c2ccc(Cl)cc2)cc1C1=C(O)C2(CCC3(CC2)OCC(C)CO3)NC1=O (centres unmarked)
2.69
Cc1ccc(-c2ccc(F)c(F)c2)c(C)c1C1=C(O)[C@]2(CC[C@H](C(F)(F)F)CC2)NC1=O
2.81
Cc1ccc(-c2ccc(Cl)cc2)cc1C1=C(O)C(C)(C)OC1=O
3.57
CCCC1CCC2(CC1)OC(=O)C(c1cc(-c3ccc(Cl)cc3)ccc1C)=C2O (centres unmarked)
2.65

Quick check: log10 IC50 of O=C1C(c2cc(-c3ccc(Cl)cc3)ccc2Cl)C(=O)N2CCCCN12 ?
2.60

I would be grateful if you could share the reported log10 IC50 for Cc1cc(C)c(-c2ccc(Cl)cc2)cc1C1=C(O)C2(CCC(C(F)(F)F)CC2)NC1=O (centres unmarked) .
3.05

Give its log10 IC50 value. Item: O=C1N[C@]2(CCC[C@H](C(F)(F)F)C2)C(O)=C1c1cc(-c2ccc(Cl)cc2)ccc1Cl
2.23

Item Cc1ccc(-c2ccc(Cl)cc2)c(C)c1C1=C(O)C2(CCC(OCC(F)(F)F)CC2)OC1=O (centres unmarked) has what recorded log10 IC50?
2.53

Look up log10 IC50 for this compound: COC[C@H]1CC[C@]2(CC1)NC(=O)C(c1cc(-c3ccc(Cl)c(F)c3)ccc1Cl)=C2O
2.00

I am curious: what log10 IC50 value has been reported for CC1OC2(CCC3(CC2)NC(=O)C(c2cc(-c4ccc(Cl)cc4)ccc2Cl)=C3O)OC1C (centres unmarked) ?
2.96

Please look up its log10 IC50: COC1CCCC2(C1)OC(=O)C(c1cc(-c3ccc(Cl)cc3)ccc1Cl)=C2O (centres unmarked)
3.01

Could you tell me which log10 IC50 is on file for Cc1ccc(-c2ccc(C)c(C3=C(O)C4(CCCOC4)NC3=O)c2)cc1 (centres unmarked) ?
3.49

Which log10 IC50 is reported for this compound? Cc1cc(C)c(-c2ccc(Cl)cc2)c(C)c1C1=C(O)C(C)(C)OC1=O
3.10

What measured log10 IC50 goes with COCC1CCC2(CC1)OC(=O)C(c1cc(-c3ccc(Cl)cc3)ccc1Cl)=C2O (centres unmarked) ?
2.14

Could you tell me which log10 IC50 is on file for O=C1NC2(CCC3(CC2)OCCO3)C(O)=C1c1cc(-c2ccc(Cl)cc2)ccc1Cl ?
1.94

What value of measured log10 IC50 is listed for O=C1N[C@]2(CC[C@@H](C(F)(F)F)CC2)C(O)=C1c1cc(-c2ccc(Cl)c(F)c2)ccc1Cl ?
1.86

Quick one: log10 IC50 for Cc1ccc(-c2ccc(Cl)cc2)cc1C1=C(O)CN(C(C)C)C1=O ?
2.74

log10 IC50 lookup needed for Cc1ccc(-c2ccc(Cl)cc2)cc1C1=C(O)C2(CCCCC2)NC1=O , thanks.
2.44

Which log10 IC50 is listed for CO[C@H]1CC[C@]2(CC1)NC(=O)C(c1cc(-c3ccc(Cl)c(F)c3)ccc1Cl)=C2O ?
2.01
